assay: MicroPET distribution of [^18F]-GA after PG polysaccharides intervention; format: in vivo, mice; conditions: male, Kunming, mouse, lungs, po, mice, PG polysaccharides orally 1 h before [^18F]-GA, Time(s) 4500; read-out: %ID/g of [^18F]-GA in the lungs, OA
measured.attribute: tissue uptake at 1 h (%ID/g)
Give the value, in units of %ID/g, as a plain number.

Ask | Tell me its tissue uptake at 1 h given CC1(C)[C@@H](O)CC[C@]2(C)[C@H]3C(=O)C=C4[C@@H]5C[C@@](C)(C(=O)NCCCC[18F])CC[C@]5(C)CC[C@@]4(C)[C@]3(C)CC[C@@H]12 [[^18F]-GA, [^18F]-Glycyrrhetinic acid] as the entry.
Reply | 3.07

----------
test: MicroPET distribution of [^18F]-GA after PG polysaccharides intervention; assay type: in vivo, mice; settings: male, Kunming, mouse, lungs, po, mice, PG polysaccharides orally for 7 days, Time(s) 60; read-out: %ID/g of [^18F]-GA in the lungs, LA
measured.attribute: tissue uptake at 168 h (%ID/g)
Answer in %ID/g, number only, no unit symbol.

Ask | For CC1(C)[C@@H](O)CC[C@]2(C)[C@H]3C(=O)C=C4[C@@H]5C[C@@](C)(C(=O)NCCCC[18F])CC[C@]5(C)CC[C@@]4(C)[C@]3(C)CC[C@@H]12 [[^18F]-GA, [^18F]-Glycyrrhetinic acid] , write its tissue uptake at 168 h.
Reply | 8.74

----------
experiment: MicroPET distribution of [^18F]-GA after PG polysaccharides intervention; type: in vivo, mice; conditions: male, Kunming, mouse, lungs, po, mice, PG polysaccharides orally 1 h before [^18F]-GA, Time(s) 180; read-out: %ID/g of [^18F]-GA in the lungs, OA
measured.attribute: tissue uptake at 1 h
Kindly report the value followed by its unit.

Ask | # return recorded tissue uptake at 1 h for input CC1(C)[C@@H](O)CC[C@]2(C)[C@H]3C(=O)C=C4[C@@H]5C[C@@](C)(C(=O)NCCCC[18F])CC[C@]5(C)CC[C@@]4(C)[C@]3(C)CC[C@@H]12 [[^18F]-GA, [^18F]-Glycyrrhetinic acid]
Reply | 5.95 %ID/g

----------
experiment: MicroPET distribution of [^18F]-GA after PG polysaccharides intervention; assay type: in vivo, mice; conditions: male, Kunming, mouse, lungs, po, mice, PG polysaccharides orally for 7 days, Time(s) 2250; read-out: %ID/g of [^18F]-GA in the lungs, LA
measured.attribute: tissue uptake at 168 h (%ID/g)
State the answer as a number, implicitly in %ID/g.

Ask | Answer with the recorded tissue uptake at 168 h of CC1(C)[C@@H](O)CC[C@]2(C)[C@H]3C(=O)C=C4[C@@H]5C[C@@](C)(C(=O)NCCCC[18F])CC[C@]5(C)CC[C@@]4(C)[C@]3(C)CC[C@@H]12 [[^18F]-GA, [^18F]-Glycyrrhetinic acid] only.
Reply | 1.78

----------
assay: MicroPET distribution of [^18F]-GA after PG polysaccharides intervention; assay type: in vivo, mice; settings: male, Kunming, mouse, lungs, intravenous, mice, control group, Time(s) 2700; read-out: %ID/g of [^18F]-GA in the lungs, Con
measured.attribute: tissue uptake at 2700 s (%ID/g)
Reply with just the number (in %ID/g).

Ask | Return tissue uptake at 2700 s for the following compound: CC1(C)[C@@H](O)CC[C@]2(C)[C@H]3C(=O)C=C4[C@@H]5C[C@@](C)(C(=O)NCCCC[18F])CC[C@]5(C)CC[C@@]4(C)[C@]3(C)CC[C@@H]12 [[^18F]-GA, [^18F]-Glycyrrhetinic acid]
Reply | 1.34

----------
test: MicroPET distribution of [^18F]-GA after PG polysaccharides intervention; format: in vivo, mice; details: male, Kunming, mouse, lungs, po, mice, PG polysaccharides orally 1 h before [^18F]-GA, Time(s) 6300; read-out: %ID/g of [^18F]-GA in the lungs, OA
measured.attribute: tissue uptake at 1 h (%ID/g)
The response must be a number in %ID/g with no trailing unit.

Ask | Give tissue uptake at 1 h for the following molecule: CC1(C)[C@@H](O)CC[C@]2(C)[C@H]3C(=O)C=C4[C@@H]5C[C@@](C)(C(=O)NCCCC[18F])CC[C@]5(C)CC[C@@]4(C)[C@]3(C)CC[C@@H]12 [[^18F]-GA, [^18F]-Glycyrrhetinic acid]
Reply | 2.95

----------
experiment: MicroPET distribution of [^18F]-GA after PG polysaccharides intervention; format: in vivo, mice; settings: male, Kunming, mouse, lungs, po, mice, PG polysaccharides orally 1 h before [^18F]-GA, Time(s) 1020; read-out: %ID/g of [^18F]-GA in the lungs, OA
measured.attribute: tissue uptake at 1 h (%ID/g)
Answer format: numeric, %ID/g implied, no suffix.

Ask | Using the record for CC1(C)[C@@H](O)CC[C@]2(C)[C@H]3C(=O)C=C4[C@@H]5C[C@@](C)(C(=O)NCCCC[18F])CC[C@]5(C)CC[C@@]4(C)[C@]3(C)CC[C@@H]12 [[^18F]-GA, [^18F]-Glycyrrhetinic acid] , state its measured tissue uptake at 1 h.
Reply | 4.35

----------
test: MicroPET distribution of [^18F]-GA after PG polysaccharides intervention; assay type: in vivo, mice; conditions: male, Kunming, mouse, lungs, intravenous, mice, control group, Time(s) 3900; read-out: %ID/g of [^18F]-GA in the lungs, Con
measured.attribute: tissue uptake at 3900 s (%ID/g)
Response body: numeric value in %ID/g, unit text excluded.

Ask | Write down tissue uptake at 3900 s measured for item CC1(C)[C@@H](O)CC[C@]2(C)[C@H]3C(=O)C=C4[C@@H]5C[C@@](C)(C(=O)NCCCC[18F])CC[C@]5(C)CC[C@@]4(C)[C@]3(C)CC[C@@H]12 [[^18F]-GA, [^18F]-Glycyrrhetinic acid]
Reply | 1.23

----------
assay: MicroPET distribution of [^18F]-GA after PG polysaccharides intervention; format: in vivo, mice; conditions: male, Kunming, mouse, lungs, po, mice, PG polysaccharides orally for 7 days, Time(s) 1650; read-out: %ID/g of [^18F]-GA in the lungs, LA
measured.attribute: tissue uptake at 168 h (%ID/g)
Unit %ID/g implied. Number only.

Ask | Hello, please tell me recorded tissue uptake at 168 h for this one: CC1(C)[C@@H](O)CC[C@]2(C)[C@H]3C(=O)C=C4[C@@H]5C[C@@](C)(C(=O)NCCCC[18F])CC[C@]5(C)CC[C@@]4(C)[C@]3(C)CC[C@@H]12 [[^18F]-GA, [^18F]-Glycyrrhetinic acid]
Reply | 2.06

----------
assay: MicroPET distribution of [^18F]-GA after PG polysaccharides intervention; format: in vivo, mice; details: male, Kunming, mouse, lungs, po, mice, PG polysaccharides orally 1 h before [^18F]-GA, Time(s) 1140; read-out: %ID/g of [^18F]-GA in the lungs, OA
measured.attribute: tissue uptake at 1 h (%ID/g)
Form entry: value (%ID/g) — number only.

Ask | Tell me tissue uptake at 1 h reported for CC1(C)[C@@H](O)CC[C@]2(C)[C@H]3C(=O)C=C4[C@@H]5C[C@@](C)(C(=O)NCCCC[18F])CC[C@]5(C)CC[C@@]4(C)[C@]3(C)CC[C@@H]12 [[^18F]-GA, [^18F]-Glycyrrhetinic acid]
Reply | 4.25

----------
assay: MicroPET distribution of [^18F]-GA after PG polysaccharides intervention; format: in vivo, mice; conditions: male, Kunming, mouse, lungs, po, mice, PG polysaccharides orally 1 h before [^18F]-GA, Time(s) 1950; read-out: %ID/g of [^18F]-GA in the lungs, OA
measured.attribute: tissue uptake at 1 h
Report field: quantity (unit follows the number).

Ask | Consider the molecule CC1(C)[C@@H](O)CC[C@]2(C)[C@H]3C(=O)C=C4[C@@H]5C[C@@](C)(C(=O)NCCCC[18F])CC[C@]5(C)CC[C@@]4(C)[C@]3(C)CC[C@@H]12 [[^18F]-GA, [^18F]-Glycyrrhetinic acid] . State its measured tissue uptake at 1 h.
Reply | 3.95 %ID/g

----------
assay: MicroPET distribution of [^18F]-GA after PG polysaccharides intervention; assay type: in vivo, mice; conditions: male, Kunming, mouse, lungs, po, mice, PG polysaccharides orally 1 h before [^18F]-GA, Time(s) 5700; read-out: %ID/g of [^18F]-GA in the lungs, OA
measured.attribute: tissue uptake at 1 h (%ID/g)
Hi! Could you send only the number? It should be in %ID/g, unit omitted.

Ask | Fill in tissue uptake at 1 h for record CC1(C)[C@@H](O)CC[C@]2(C)[C@H]3C(=O)C=C4[C@@H]5C[C@@](C)(C(=O)NCCCC[18F])CC[C@]5(C)CC[C@@]4(C)[C@]3(C)CC[C@@H]12 [[^18F]-GA, [^18F]-Glycyrrhetinic acid]
Reply | 2.88
